Values from ChEMBL document CHEMBL5154782

I'd be grateful if you could share measured Activity for these entries.
system: von Hippel-Lindau disease tumor suppressor/Epidermal growth factor receptor (Homo sapiens), P00533+P40337 [L858R,T790M]; experiment: Protac activity at VHL/EGFR L858R/T790M mutant in human NCI-H1975 cells assessed as induction of EGFR degradation at 10 nM incubated for 24 hrs by Western blot analysis relative to control; type: cell-based
Answers are plain numbers, in %.

Reference set, count: 2
- Smiles Entry: "C=CC(=O)N1CCC[C@H](n2c(Nc3ccccc3)nc3cnc(Nc4ccc(N5CCN(CCCCCCCC(=O)N[C@H](C(=O)N6C[C@H](O)C[C@H]6C(=O)N[C@@H](C)c6ccc(-c7scnc7C)cc6)C(C)(C)C)CC5)cc4)nc32)C1"
  Activity / %: 51
- Smiles Entry: "C=CC(=O)N1CCC[C@H](n2c(Nc3ccccc3)nc3cnc(Nc4ccc(N5CCN(CCCCCCC(=O)N[C@H](C(=O)N6C[C@H](O)C[C@H]6C(=O)NCc6ccc(-c7scnc7C)cc6)C(C)(C)C)CC5)cc4)nc32)C1"
  Activity / %: 49

Which Activity value is on record for `C=CC(=O)N1CC[C@H](n2c(Nc3ccccc3)nc3cnc(Nc4ccc(N5CCN(CCCCCCC(=O)N[C@H](C(=O)N6C[C@H](O)C[C@H]6C(=O)NCc6ccc(-c7scnc7C)cc6)C(C)(C)C)CC5)cc4)nc32)C1` ?
38
